Values from the supplement of paper PMC6757056

B1: library; a variant is named by its letters at N, in order (parent)
chain: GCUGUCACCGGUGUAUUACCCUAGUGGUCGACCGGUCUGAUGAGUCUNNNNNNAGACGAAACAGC

Variants of: B1
Test: normalized RNA/DNA level with ligand (relative to sTRSVctl = 100) (log10 (% of sTRSVctl)); ligand: hypoxanthine (xanthine aptamer); higher = less ribozyme self-cleavage, higher mRNA level
Details: ligand concentration (+) RNA-Seq: 5 mM, HEK293T, reporter: mCherry (pCS4076), ligand present: yes
readout_name: normalized RNA/DNA level with ligand (log10)

[
  {
    "polymer_sequence": "GCUGUCACCGGUGUAUUACCCUAGUGGUCGACCGGUCUGAUGAGUCUCGAUUCAGACGAAACAGC [CGAUUC]",
    "val": 1.98
  },
  {
    "polymer_sequence": "GCUGUCACCGGUGUAUUACCCUAGUGGUCGACCGGUCUGAUGAGUCUUACGAAAGACGAAACAGC [UACGAA]",
    "val": 1.91
  },
  {
    "polymer_sequence": "GCUGUCACCGGUGUAUUACCCUAGUGGUCGACCGGUCUGAUGAGUCUAGACUUAGACGAAACAGC [AGACUU]",
    "val": 1.95
  },
  {
    "polymer_sequence": "GCUGUCACCGGUGUAUUACCCUAGUGGUCGACCGGUCUGAUGAGUCUCCGACUAGACGAAACAGC [CCGACU]",
    "val": 1.99
  },
  {
    "polymer_sequence": "GCUGUCACCGGUGUAUUACCCUAGUGGUCGACCGGUCUGAUGAGUCUGGCCAUAGACGAAACAGC [GGCCAU]",
    "val": 1.96
  },
  {
    "polymer_sequence": "GCUGUCACCGGUGUAUUACCCUAGUGGUCGACCGGUCUGAUGAGUCUUCUCAUAGACGAAACAGC [UCUCAU]",
    "val": 1.97
  },
  {
    "polymer_sequence": "GCUGUCACCGGUGUAUUACCCUAGUGGUCGACCGGUCUGAUGAGUCUGCAUGUAGACGAAACAGC [GCAUGU]",
    "val": 1.9
  },
  {
    "polymer_sequence": "GCUGUCACCGGUGUAUUACCCUAGUGGUCGACCGGUCUGAUGAGUCUCGUAGGAGACGAAACAGC [CGUAGG]",
    "val": 1.81
  },
  {
    "polymer_sequence": "GCUGUCACCGGUGUAUUACCCUAGUGGUCGACCGGUCUGAUGAGUCUAGUCUUAGACGAAACAGC [AGUCUU]",
    "val": 1.96
  },
  {
    "polymer_sequence": "GCUGUCACCGGUGUAUUACCCUAGUGGUCGACCGGUCUGAUGAGUCUGCGAGUAGACGAAACAGC [GCGAGU]",
    "val": 1.86
  },
  {
    "polymer_sequence": "GCUGUCACCGGUGUAUUACCCUAGUGGUCGACCGGUCUGAUGAGUCUCUUUACAGACGAAACAGC [CUUUAC]",
    "val": 1.92
  },
  {
    "polymer_sequence": "GCUGUCACCGGUGUAUUACCCUAGUGGUCGACCGGUCUGAUGAGUCUGAGCUCAGACGAAACAGC [GAGCUC]",
    "val": 1.99
  },
  {
    "polymer_sequence": "GCUGUCACCGGUGUAUUACCCUAGUGGUCGACCGGUCUGAUGAGUCUAAUCAAAGACGAAACAGC [AAUCAA]",
    "val": 1.89
  },
  {
    "polymer_sequence": "GCUGUCACCGGUGUAUUACCCUAGUGGUCGACCGGUCUGAUGAGUCUAAGACCAGACGAAACAGC [AAGACC]",
    "val": 1.94
  },
  {
    "polymer_sequence": "GCUGUCACCGGUGUAUUACCCUAGUGGUCGACCGGUCUGAUGAGUCUCAAUGCAGACGAAACAGC [CAAUGC]",
    "val": 1.95
  },
  {
    "polymer_sequence": "GCUGUCACCGGUGUAUUACCCUAGUGGUCGACCGGUCUGAUGAGUCUUUCUUUAGACGAAACAGC [UUCUUU]",
    "val": 1.93
  },
  {
    "polymer_sequence": "GCUGUCACCGGUGUAUUACCCUAGUGGUCGACCGGUCUGAUGAGUCUGCUGGGAGACGAAACAGC [GCUGGG]",
    "val": 1.94
  },
  {
    "polymer_sequence": "GCUGUCACCGGUGUAUUACCCUAGUGGUCGACCGGUCUGAUGAGUCUAGCUCAAGACGAAACAGC [AGCUCA]",
    "val": 2
  },
  {
    "polymer_sequence": "GCUGUCACCGGUGUAUUACCCUAGUGGUCGACCGGUCUGAUGAGUCUUCCGUCAGACGAAACAGC [UCCGUC]",
    "val": 1.97
  },
  {
    "polymer_sequence": "GCUGUCACCGGUGUAUUACCCUAGUGGUCGACCGGUCUGAUGAGUCUCGUUUAAGACGAAACAGC [CGUUUA]",
    "val": 1.89
  },
  {
    "polymer_sequence": "GCUGUCACCGGUGUAUUACCCUAGUGGUCGACCGGUCUGAUGAGUCUAUUGCAAGACGAAACAGC [AUUGCA]",
    "val": 1.9
  },
  {
    "polymer_sequence": "GCUGUCACCGGUGUAUUACCCUAGUGGUCGACCGGUCUGAUGAGUCUCAAUACAGACGAAACAGC [CAAUAC]",
    "val": 1.93
  },
  {
    "polymer_sequence": "GCUGUCACCGGUGUAUUACCCUAGUGGUCGACCGGUCUGAUGAGUCUUACAAUAGACGAAACAGC [UACAAU]",
    "val": 1.9
  },
  {
    "polymer_sequence": "GCUGUCACCGGUGUAUUACCCUAGUGGUCGACCGGUCUGAUGAGUCUGUACGAAGACGAAACAGC [GUACGA]",
    "val": 1.91
  },
  {
    "polymer_sequence": "GCUGUCACCGGUGUAUUACCCUAGUGGUCGACCGGUCUGAUGAGUCUGAAACUAGACGAAACAGC [GAAACU]",
    "val": 1.92
  },
  {
    "polymer_sequence": "GCUGUCACCGGUGUAUUACCCUAGUGGUCGACCGGUCUGAUGAGUCUACCUGGAGACGAAACAGC [ACCUGG]",
    "val": 1.91
  },
  {
    "polymer_sequence": "GCUGUCACCGGUGUAUUACCCUAGUGGUCGACCGGUCUGAUGAGUCUCGAGCAAGACGAAACAGC [CGAGCA]",
    "val": 1.94
  },
  {
    "polymer_sequence": "GCUGUCACCGGUGUAUUACCCUAGUGGUCGACCGGUCUGAUGAGUCUCAGUCUAGACGAAACAGC [CAGUCU]",
    "val": 1.98
  },
  {
    "polymer_sequence": "GCUGUCACCGGUGUAUUACCCUAGUGGUCGACCGGUCUGAUGAGUCUUAGGAGAGACGAAACAGC [UAGGAG]",
    "val": 1.87
  },
  {
    "polymer_sequence": "GCUGUCACCGGUGUAUUACCCUAGUGGUCGACCGGUCUGAUGAGUCUGCCGUGAGACGAAACAGC [GCCGUG]",
    "val": 1.91
  },
  {
    "polymer_sequence": "GCUGUCACCGGUGUAUUACCCUAGUGGUCGACCGGUCUGAUGAGUCUAGGUUGAGACGAAACAGC [AGGUUG]",
    "val": 1.88
  },
  {
    "polymer_sequence": "GCUGUCACCGGUGUAUUACCCUAGUGGUCGACCGGUCUGAUGAGUCUAGAGAGAGACGAAACAGC [AGAGAG]",
    "val": 1.75
  },
  {
    "polymer_sequence": "GCUGUCACCGGUGUAUUACCCUAGUGGUCGACCGGUCUGAUGAGUCUGGUUAUAGACGAAACAGC [GGUUAU]",
    "val": 1.94
  },
  {
    "polymer_sequence": "GCUGUCACCGGUGUAUUACCCUAGUGGUCGACCGGUCUGAUGAGUCUGUCAAAAGACGAAACAGC [GUCAAA]",
    "val": 1.91
  },
  {
    "polymer_sequence": "GCUGUCACCGGUGUAUUACCCUAGUGGUCGACCGGUCUGAUGAGUCUCUUUGCAGACGAAACAGC [CUUUGC]",
    "val": 1.92
  },
  {
    "polymer_sequence": "GCUGUCACCGGUGUAUUACCCUAGUGGUCGACCGGUCUGAUGAGUCUCCCUAGAGACGAAACAGC [CCCUAG]",
    "val": 1.89
  },
  {
    "polymer_sequence": "GCUGUCACCGGUGUAUUACCCUAGUGGUCGACCGGUCUGAUGAGUCUUAGCCCAGACGAAACAGC [UAGCCC]",
    "val": 1.96
  },
  {
    "polymer_sequence": "GCUGUCACCGGUGUAUUACCCUAGUGGUCGACCGGUCUGAUGAGUCUCACCUCAGACGAAACAGC [CACCUC]",
    "val": 1.99
  },
  {
    "polymer_sequence": "GCUGUCACCGGUGUAUUACCCUAGUGGUCGACCGGUCUGAUGAGUCUGUAUAGAGACGAAACAGC [GUAUAG]",
    "val": 1.85
  },
  {
    "polymer_sequence": "GCUGUCACCGGUGUAUUACCCUAGUGGUCGACCGGUCUGAUGAGUCUAGAGCAAGACGAAACAGC [AGAGCA]",
    "val": 1.94
  },
  {
    "polymer_sequence": "GCUGUCACCGGUGUAUUACCCUAGUGGUCGACCGGUCUGAUGAGUCUUGUGACAGACGAAACAGC [UGUGAC]",
    "val": 1.94
  },
  {
    "polymer_sequence": "GCUGUCACCGGUGUAUUACCCUAGUGGUCGACCGGUCUGAUGAGUCUACAAAUAGACGAAACAGC [ACAAAU]",
    "val": 1.89
  },
  {
    "polymer_sequence": "GCUGUCACCGGUGUAUUACCCUAGUGGUCGACCGGUCUGAUGAGUCUUAAGAUAGACGAAACAGC [UAAGAU]",
    "val": 1.91
  },
  {
    "polymer_sequence": "GCUGUCACCGGUGUAUUACCCUAGUGGUCGACCGGUCUGAUGAGUCUCAUGAUAGACGAAACAGC [CAUGAU]",
    "val": 1.9
  },
  {
    "polymer_sequence": "GCUGUCACCGGUGUAUUACCCUAGUGGUCGACCGGUCUGAUGAGUCUACCCGGAGACGAAACAGC [ACCCGG]",
    "val": 1.89
  }
]
